System: Human Oral Mucosa Explant Tissues
Assay: Effect of final gel pH on anthocyanin uptake into human oral mucosa explant tissues
Type: in vitro ADME
Settings: explant sample 009; 10% w/w FBR gel
endpoint: Anthocyanin uptake, Gel pH 3.5 (pmol per mg tissue)
Entry rule: numbers only, all in pmol per mg tissue.

For record OC[C@H]1O[C@@H](Oc2cc3c(O)cc(O)cc3[o+]c2-c2ccc(O)c(O)c2)[C@H](O)[C@@H](O)[C@@H]1O [cyanidin 3-glucoside] the listed Anthocyanin uptake, Gel pH 3.5 is 21.2

The measured Anthocyanin uptake, Gel pH 3.5 associated with C[C@@H]1O[C@@H](OC[C@H]2O[C@@H](Oc3cc4c(O)cc(O)cc4[o+]c3-c3ccc(O)c(O)c3)[C@H](O)[C@@H](O)[C@@H]2O)[C@H](O)[C@H](O)[C@H]1O [cyanidin 3-rutinoside] reads 43.9

Field Anthocyanin uptake, Gel pH 3.5 (entry CC1OC(OCC2OC(Oc3cc4c(O)cc(O)cc4[o+]c3-c3ccc(O)c(O)c3)C(OC3OCC(O)C(O)C3O)C(O)C2O)C(O)C(O)C1O (stereo not shown) [cyanidin 3-xylosylrutinoside] ) reads 9.9

The compound OC[C@H]1O[C@@H](Oc2cc3c(O)cc(O)cc3[o+]c2-c2ccc(O)c(O)c2)[C@H](O[C@@H]2OC[C@@H](O)[C@H](O)[C@H]2O)[C@@H](O)[C@@H]1O.[Cl-] [Cyanidin 3-sambubioside, cyanidin 3-sambubioside] showed Anthocyanin uptake, Gel pH 3.5 equal to 2.9
